# reported pEC50; entries follow
Tested on: B/YZ29/2019 (Victoria)
ASSAY: microbe, parasite or virus in culture
Format: cell-based
CONDITION SET: unidentified influenza virus, MDCK cells, 72 hours
Remember, pEC50 is on a log scale: it is -log10 of the molar concentration.

>>> value_observed("CC(=O)N[C@H]1[C@H]([C@H](O)[C@H](O)CO)OC(C(=O)O)=C[C@@H]1N=C(N)N [Zanamivir, zanamivir, reference compound]")
7.23

As a next step, examine the compound that follows.
input: Missing value: pEC50, B/YZ29/2019 (Victoria), entry CCC(CC)O[C@@H]1C=C(C(=O)O)C[C@H](N)[C@H]1NC(C)=O [Oseltamivir acid] . Fill in?
output: 6.15

###

SYSTEM NAME: Influenza A H1N1 (A/California/04/2009) Neuraminidase/NA (Influenza A virus (A/California/04/2009(H1N1)))
ASSAY: biochemical
CONDITION SET: neuraminidase 1 U/ml
Listed below: pIC50 values for each entry.
// pIC50 is dimensionless: -log10 of concentration (M)

>>> value_observed("C#CCOCCOCCOCCOCCOC(=O)N(CCOCCN(C)C(=O)O[C@@H]([C@@H]1OC(C(=O)O)=C[C@H](NC(=N)N)[C@H]1NC(C)=O)[C@H](O)CO)CCOCCN(C)C(=O)O[C@@H]([C@@H]1OC(C(=O)O)=C[C@H](NC(=N)N)[C@H]1NC(C)=O)[C@H](O)CO")
7.98

input: May I ask what pIC50 has been recorded for C#CCOCCOCCOCCN1CCC(N(CCOCCN(C)C(=O)O[C@@H]([C@@H]2OC(C(=O)O)=C[C@H](NC(=N)N)[C@H]2NC(C)=O)[C@H](O)CO)CCOCCN(C)C(=O)O[C@@H]([C@@H]2OC(C(=O)O)=C[C@H](NC(=N)N)[C@H]2NC(C)=O)[C@H](O)CO)CC1 ?
output: 7.67

input: Which pIC50 is reported for this compound? C#CCOCCOCCOCCNC(=N)N(CCOCCN(C)C(=O)O[C@@H]([C@@H]1OC(C(=O)O)=C[C@H](NC(=N)N)[C@H]1NC(C)=O)[C@H](O)CO)CCOCCN(C)C(=O)O[C@@H]([C@@H]1OC(C(=O)O)=C[C@H](NC(=N)N)[C@H]1NC(C)=O)[C@H](O)CO
output: 7.97

input: # input compound: C#CCOCCOCCOCCOC1CCN(C(=O)N(CCOCCN(C)C(=O)O[C@@H]([C@@H]2OC(C(=O)O)=C[C@H](NC(=N)N)[C@H]2NC(C)=O)[C@H](O)CO)CCOCCN(C)C(=O)O[C@@H]([C@@H]2OC(C(=O)O)=C[C@H](NC(=N)N)[C@H]2NC(C)=O)[C@H](O)CO)CC1 ; wanted: its pIC50
output: 7.43

###

System: IFV A/California/2/2014 (H3N2)
ASSAY: microbe, parasite or virus in culture
Format: cell-based
CONDITION SET: Influenza A virus, 120 h; IFV A/California/2/2014 (H3N2), MDCK cells, 5 days; read-out: EC50
Reported values of EC50 for individual entries

>>> value_observed("CCC(CC)O[C@@H]1C=C(C(=O)O)C[C@H](N)[C@H]1NC(C)=O")
"> 100 µM"

Attention now shifts to the item below.
input: # lookup: EC50 of CC(=O)N[C@H]1[C@H]([C@H](O)[C@H](O)CO)OC(C(=O)O)=C[C@@H]1N=C(N)N [Zanamivir, zanamivir, reference compound]
output: > 10 µM

###

Tested on: IFV A/California/2/2014 (H3N2)
ASSAY: microbe, parasite or virus in culture
Type: cell-based
CONDITION SET: Influenza A virus, H3N2, MDCK, 120 h
EXPERIMENTAL READOUT: EC50
State the value with its unit after it.

input: Tell me the measured EC50 of O=C1c2c(O)c(=O)ccn2N([C@@H]2c3ccccc3SCc3c2ccc(F)c3F)[C@@H]2COCCN12 , please.
output: 0.39 nM

###

System: A/Chicken/Eastern/JTC11/2013 (H7N9)
ASSAY: microbe, parasite or virus in culture
Assay type: cell-based
CONDITION SET: Influenza A virus, H7N9, MDCK, 72 h
EXPERIMENTAL READOUT: EC50
Answer as a quantity: numeral, then unit.

input: Which EC50 value is on record for CCC(CC)O[C@@H]1C=C(C(=O)O)C[C@H](N)[C@H]1NC(C)=O ?
output: 540 nM

###

System: H1N1(A/PR/8/34)
ASSAY: microbe, parasite or virus in culture
Assay type: cell-based, influenza virus H1N1(A/PR/8/34)
CONDITION SET: Influenza A virus, MDCK, 96 h
EXPERIMENTAL READOUT: pEC50
Reminder that pEC50 is minus the log10 of a molar concentration.

input: Given the compound CC(=O)N[C@H]1[C@H]([C@H](O)[C@H](O)CO)OC(C(=O)O)=C[C@@H]1N=C(N)N [Zanamivir, zanamivir, reference compound] , what is its reported pEC50?
output: 7.34

###

ASSAY: in vitro
Assay type: cell-based
CONDITION SET: dog
EXPERIMENTAL READOUT: CC50

input: Look up CC50: CC(=O)N[C@H]1[C@H]([C@H](O)[C@H](O)CO)OC(C(=O)O)=C[C@@H]1N=C(N)N [Zanamivir, zanamivir, reference compound]
output: > 100 µM

###

Items are presented alongside their recorded pIC50.
SYSTEM NAME: Influenza A H1N1 (A/California/04/2009) Neuraminidase/NA (Influenza A virus (A/California/04/2009(H1N1)), UniProt C3W5S3)
ASSAY: biochemical
CONDITION SET: neuraminidase 1 U/ml
// pIC50 here means minus log10 of the molar concentration (mol/L)

>>> value_observed("C#CCOCCOCCOCCOCCNC(=O)N(CCOCCN(C)C(=O)O[C@@H]([C@@H]1OC(C(=O)O)=C[C@H](NC(=N)N)[C@H]1NC(C)=O)[C@H](O)CO)CCOCCN(C)C(=O)O[C@@H]([C@@H]1OC(C(=O)O)=C[C@H](NC(=N)N)[C@H]1NC(C)=O)[C@H](O)CO")
7.85
>>> value_observed("C#CCOCCOCCOCCN1CCN(C(=O)N(CCOCCN(C)C(=O)O[C@@H]([C@@H]2OC(C(=O)O)=C[C@H](NC(=N)N)[C@H]2NC(C)=O)[C@H](O)CO)CCOCCN(C)C(=O)O[C@@H]([C@@H]2OC(C(=O)O)=C[C@H](NC(=N)N)[C@H]2NC(C)=O)[C@H](O)CO)CC1")
7.31
>>> value_observed("C#CCOCCOCCOCCOCCNS(=O)(=O)N(CCOCCN(C)C(=O)O[C@@H]([C@@H]1OC(C(=O)O)=C[C@H](NC(=N)N)[C@H]1NC(C)=O)[C@H](O)CO)CCOCCN(C)C(=O)O[C@@H]([C@@H]1OC(C(=O)O)=C[C@H](NC(=N)N)[C@H]1NC(C)=O)[C@H](O)CO")
8.12

Next, consider the following compound.
input: # input compound: C#CCOCCOCCOCCOCCN(C)C(=O)N(CCOCCN(C)C(=O)O[C@@H]([C@@H]1OC(C(=O)O)=C[C@H](NC(=N)N)[C@H]1NC(C)=O)[C@H](O)CO)CCOCCN(C)C(=O)O[C@@H]([C@@H]1OC(C(=O)O)=C[C@H](NC(=N)N)[C@H]1NC(C)=O)[C@H](O)CO ; wanted: its pIC50
output: 7.92

Data provenance: patent US20250144220A1
